Hello, the source for this data is patent US10961242B2, in case you need it.

For each record, write down the corresponding half-life at 1 µM.
- methodSummary: Microsomal stability, human liver microsomes
- Type: in vitro ADME
- setupConditions: both sexes, pH 7.4; human liver microsomes (h), 0.5 mg/mL, NADPH regenerating system; read-out: MS (microsomal stability) t1/2
Give bare numbers, in min.

Worked cases, half-life at 1 µM given:
# structure, half-life at 1 µM / min
data = [
    ("O=C(Cn1cc(-c2cnc(NC3Cc4ccccc4C3)nc2)c(-c2ccccn2)n1)N1CCc2[nH]nnc2C1", 33),
    ("O=C(Cn1cc(-c2cnc(NC3Cc4ccccc4C3)nc2)c(NC2CCC2)n1)N1CCc2[nH]nnc2C1", 16.4),
    ("CCN(CC)c1nn(CC(=O)N2CCc3[nH]nnc3C2)cc1-c1cnc(NC2Cc3ccccc3C2)nc1", 4.2),
]

Please look at the following compound next.
Which half-life at 1 µM is listed for `O=C(Cn1cc(-c2cnc(NC3Cc4ccccc4C3)nc2)c(-c2ccncc2)n1)N1CCc2[nH]nnc2C1` ?
22.2

====

For each record, write down the corresponding pIC50.
- System: LPA production in blood serum caused by autotoxin
- methodSummary: Inhibitory activity on LPA production in mouse blood serum
- Type: biochemical
- setupConditions: mouse blood serum (m), 18:1 LPC, 3 hours at 37° C.
Answers are plain numbers, as −log10 of the molar value.

Worked cases, pIC50 given:
# structure, pIC50
records = [
    ("O=C(Cn1cc(-c2cnc(NC3Cc4ccccc4C3)nc2)c(CN2CCNCC2)n1)N1CCc2[nH]nnc2C1", 7.68),
    ("O=C(CN1CCN(c2cnc(NC3Cc4ccccc4C3)nc2)CC1)Nc1ccc2[nH]c(=O)oc2c1", 8.00),
    ("O=C(CN1CCN(c2cnc(NC3Cc4ccccc4C3)nc2)CC1)N1CCc2[nH]nnc2C1", 7.54),
    ("O=C(Cc1nnc(-c2cnc(NCc3cccc(OC(F)(F)F)c3)nc2)o1)N1CCc2[nH]nnc2C1", 7.28),
]

Please look at the following molecule next.
Which pIC50 is listed for `CC(C)(CN1CCc2[nH]nnc2C1)C(=O)N1CCN(c2cnc(NC3Cc4ccccc4C3)nc2)CC1` ?
7.60

====

For each record, write down the corresponding IC50.
- testSystem: human ENPP2 (Homo sapiens (Human))
- methodSummary: Inhibitory activity on human ENPP2 (FS-3 assay)
- Type: biochemical
- setupConditions: human ENPP2, FS-3 substrate, 30 min at 37° C.; read-out: IC50
Where a name gives a salt, the structure may show the parent alone.
Give bare numbers, in nM.

Worked cases, IC50 given:
# compound, testSystem, endpointValue
measured = [
    ("O=C(Cc1nnc(-c2cnc(NC3Cc4ccccc4C3)nc2)o1)N1CCc2cn[nH]c2C1", "human ENPP2 (Homo sapiens (Human))", 16.6),
    ("O=C1O[C@@H](CN2CCN(c3cnc(NC4Cc5ccccc5C4)nc3)CC2)CN1c1ccc2[nH]c(=O)oc2c1", "human ENPP2 (Homo sapiens (Human))", 13.1),
    ("O=C(c1cnc(NCc2cccc(OC(F)(F)F)c2)nc1)N1CCC2(CC1)CC(CN1CCc3[nH]nnc3C1)=NO2", "human ENPP2 (Homo sapiens (Human))", 3.5),
]

Return reported IC50 values for all items listed beneath this line.
1. O=C(CN1CCN(c2cnc(NC3Cc4ccccc4C3)nc2)CC1)c1ccc2[nH]c(=O)oc2c1
2. O=C(CN1CCc2[nH]nnc2C1)N1CCN(c2cnc(NCc3cccc(OC(F)(F)F)c3)nc2)CC1
3. O=C(CCc1ccc2[nH]c(=O)oc2c1)N1CCC(c2cnc(NC3Cc4ccccc4C3)nc2)CC1
4. O=C(Cc1nnc(-c2ccc(NC3Cc4ccccc4C3)nc2)o1)N1CCc2[nH]nnc2C1
5. O=C(Cc1nnc(-c2cnc(NC3Cc4ccccc4C3)nc2)o1)N1CCc2[nH]c(=O)[nH]c2C1
6. O=C(Cn1cc(-c2cnc(NC3Cc4ccccc4C3)nc2)c(CN2CCCNCC2)n1)N1CCc2[nH]nnc2C1 [Compound 90, HCl]
7. CC(NC(=O)c1cnc(NCc2cccc(OC(F)(F)F)c2)nc1)C(=O)N1CCc2[nH]nnc2C1 (stereo not drawn)

1. 3.1
2. 3.6
3. 2.2
4. 2.9
5. 10.1
6. 2.6
7. 18.9

Return reported IC50 values for all items listed beneath this line.
1. CCc1nn(CC(=O)N2CCN(C(=O)CO)CC2)cc1-c1cnc(NC2Cc3ccccc3C2)nc1
2. O=C(CCN1CCc2[nH]nnc2C1)N1CCN(c2cnc(NC3Cc4ccccc4C3)nc2)CC1
3. O=C(Cn1cc(-c2cnc(NC3Cc4ccccc4C3)nc2)c(CCN2CCOCC2)n1)N1CCc2[nH]nnc2C1
4. O=C(NCC(=O)N1CCc2[nH]nnc2C1)c1cnc(NCc2cccc(OC(F)(F)F)c2)nc1
5. O=C(CN1CCN(c2cnc(NC3Cc4ccccc4C3)nc2)CC1)N1CCc2[nH]nnc2C1

2.3
3.2
2.1
14.3
2.6
